- ASSAY EXPLANATION: Inhibition of wild type HIV YU2 gp120 to CD4 binding
- Design: species or system Human immunodeficiency virus
MEASUREMENT KIND: IC50 (µM)
Respond numerically; units are µM and should not be typed.

## Task What value of measured IC50 is listed for O=C(O)c1cc(SSc2ccc([N+](=O)[O-])c(C(=O)O)c2)ccc1[N+](=O)[O-] ?
## Result 3.58

## Task Item: CCN1C(=O)C=CC1=O [N-ETHYLMALEIMIDE]
## Result 3.22
